Data provenance is PubChem BioAssay (NCI).

- System: SK-MEL-28 melanoma
- test-method-notes: NCI tumour cell line growth inhibition, 48 h
parameter: TGI

Worked cases, answers included:
CCOC(=O)Cc1csc(NC(NC(=O)OCC)(C(=O)OCC)C(F)(F)F)n1 (configuration not stated)
> 100 µM
CCCCN1C(=O)C2Cc3c([nH]c4ccccc34)C(c3cccc(O)c3)N2C1=O (configuration not stated)
34.3 µM
O=C(CSc1nc2c(n1Nc1ccccc1)-c1ccccc1SC2)Nc1nc(-c2ccc(Cl)cc2)cs1
> 100 µM
COc1c/c(=C2\C=c3ccccc3=N2)[nH]/c1=C\c1[nH]c(C)cc1C
26.3 µM
CSc1ncnc2c1ncn2CCC(=O)O
> 100 µM

Asked: Can you share its TGI? I mean this compound: Cc1c(C)c2ccc3oc4ccccc4c3c2oc1=O
Given back: > 100 µM

Asked: Which TGI value belongs to CC(=O)O[C@@H]1C[C@]2(C(=O)c3ccccc3)C(=O)C(=O)S[C@]12c1ccccc1 ?
Given back: > 100 µM

Asked: Record request: TGI value, item CC(C)[N+]([O-])(CCCNc1c2ccccc2nc2cccc([N+](=O)[O-])c12)C(C)C
Given back: 0.175 µM
